Test system: T47D cells
assay.comment: T47D cell proliferation assay (BrdU incorporation)
Format: cell-based
measurement.conditions: Homo sapiens, agonist mode, reference progestins, read-out: Estimated EC50, BrdU incorporation, individual studies
quantity: EC50 (nM)
Your answer is read as nM, so omit the unit and give the number.

What value of measured EC50 is listed for CC(=O)O[C@]1(C(C)=O)CC[C@H]2[C@@H]3C[C@H](C)C4=CC(=O)CC[C@]4(C)[C@H]3CC[C@@]21C [MPA, medroxyprogesterone acetate] ?
0.019

====

I'd be grateful if you could share measured melting point for these entries.

What value of measured melting point is listed for O=c1[nH]c2ccc(-c3cccc(Cl)c3)cc2s1 ?
195 to 196 °C

What value of measured melting point is listed for O=c1[nH]c2ccc(-c3cccc([N+](=O)[O-])c3)cc2n1Cc1ccccc1 ?
202 to 203 °C

What value of measured melting point is listed for O=c1[nH]c2ccc(-c3cccc([N+](=O)[O-])c3)cc2s1 ?
276 to 277 °C

What value of measured melting point is listed for Cn1c(=O)[nH]c2ccc(-c3cccc(Cl)c3)cc21 ?
219 to 220 °C

What value of measured melting point is listed for CC1Nc2cc(-c3ccc(Cl)cc3)ccc2NC1=O (stereo not drawn) ?
228 to 230 °C

What value of measured melting point is listed for CC(C)N1CC(=O)Nc2ccc(-c3cc(F)cc(C#N)c3)cc21 ?
238 to 240 °C

What value of measured melting point is listed for O=c1[nH]c2ccc(-c3cccc([N+](=O)[O-])c3)cc2[nH]1 ?
324 to 325 °C

What value of measured melting point is listed for CC(C)OC(=O)N1CC(=S)Nc2ccc(-c3cccc(Cl)c3)cc21 ?
208 to 212 °C

What value of measured melting point is listed for O=c1[nH]c2ccc(-c3cccc(Cl)c3)cc2n1Cc1ccccc1 ?
168 to 169 °C

====

quantity: melting point

What value of measured melting point is listed for O=[N+]([O-])c1cccc(-c2ccc3[nH]c(=S)n(Cc4ccccc4)c3c2)c1 [Example 25] ?
244 to 245 °C

What value of measured melting point is listed for S=c1[nH]c2ccc(-c3cccc(Cl)c3)cc2n1Cc1ccccc1 [Example 24] ?
211 to 212 °C

What value of measured melting point is listed for O=C1CN(Cc2ccccc2)c2cc(-c3cccc(Cl)c3)ccc2N1 [Example 28] ?
182 to 185 °C

What value of measured melting point is listed for CN1CC(=O)Nc2ccc(-c3cccc([N+](=O)[O-])c3)cc21 [Example 26] ?
237 to 243 °C

What value of measured melting point is listed for CC(C)N1CC(=O)Nc2ccc(-c3cccc(Cl)c3)cc21 [Compound C4] ?
146 to 150 °C

What value of measured melting point is listed for CCC1Sc2cc(-c3cccc([N+](=O)[O-])c3)ccc2NC1=O (stereo not shown) [Compound B2] ?
180 °C

What value of measured melting point is listed for Cn1c(=O)[nH]c2ccc(-c3cccc([N+](=O)[O-])c3)cc21 [Compound 4] ?
264 to 265 °C

What value of measured melting point is listed for O=C1CSc2cc(-c3cccc([N+](=O)[O-])c3)ccc2N1 [Compound B1] ?
290 to 292 °C

What value of measured melting point is listed for O=c1[nH]c2ccc(-c3cccc([N+](=O)[O-])c3)cc2o1 [Example 11, 6-(3-Nitro-phenyl)-3H-benzooxazol-2-one] ?
280 to 281 °C

What value of measured melting point is listed for CC(C)N1CC(=O)Nc2ccc(-c3ccc(F)c(Cl)c3)cc21 [Compound C5] ?
208 to 213 °C
